assay: Cytotoxicity in uninfected RD cells (CC50, MTT); format: cell-based; conditions: human, Table 1
Assignment: determine reported CC50 at 48 h for the given compounds.
Give the quantity in µM, number only.

(Q) Answer with reported CC50 at 48 h of CC(C)c1ccc(OCC(=O)OC2C(O)C=C3CCN4Cc5cc6c(cc5C2C34)OCO6)cc1 (stereo not drawn)
(A) 101

(Q) Answer with reported CC50 at 48 h of O=C(COc1ccc(F)cc1)OC1C(O)C=C2CCN3Cc4cc5c(cc4C1C23)OCO5 (stereo not drawn)
(A) 131

(Q) Answer with reported CC50 at 48 h of O=C(COc1ccccc1)OC1C(O)C=C2CCN3Cc4cc5c(cc4C1C23)OCO5 (stereo not drawn)
(A) 119

(Q) Answer with reported CC50 at 48 h of O=C(COc1ccc(Cl)cc1)OC1C(O)C=C2CCN3Cc4cc5c(cc4C1C23)OCO5 (stereo not drawn)
(A) 154

(Q) Answer with reported CC50 at 48 h of O=C(CCc1ccccc1)OC1C(O)C=C2CCN3Cc4cc5c(cc4C1C23)OCO5 (stereo not drawn)
(A) 129

(Q) Answer with reported CC50 at 48 h of O=C(COc1ccc(I)cc1)OC1C(O)C=C2CCN3Cc4cc5c(cc4C1C23)OCO5 (stereo not drawn)
(A) 99.6

----------
tested on: EV71; test: In-vitro experiment against EV71 virus (RD cells, MTT); format: cell-based; conditions: Enterovirus A; RD cells infected with 100x TCID50 EV71, compound added after 2 hrs, MTT at 48 hrs
Assignment: determine reported pEC50 for the given compounds.
API: returns pEC50 as number; meaning -log10 of concentration in mol/L.

(Q) Answer with reported pEC50 of O=C(COc1ccc([N+](=O)[O-])cc1)OC1C(O)C=C2CCN3Cc4cc5c(cc4C1C23)OCO5 (stereo not drawn)
(A) 5.91

(Q) Answer with reported pEC50 of O=C(CSc1ccc(Cl)cc1)OC1C(O)C=C2CCN3Cc4cc5c(cc4C1C23)OCO5 (stereo not drawn)
(A) 5.84

(Q) Answer with reported pEC50 of O=C(COc1ccccc1[N+](=O)[O-])OC1C(O)C=C2CCN3Cc4cc5c(cc4C1C23)OCO5 (stereo not drawn)
(A) 5.77

(Q) Answer with reported pEC50 of O=C(COc1ccccc1Cl)OC1C(O)C=C2CCN3Cc4cc5c(cc4C1C23)OCO5 (stereo not drawn)
(A) 5.79

(Q) Answer with reported pEC50 of O=C(COc1ccccc1)OC1C(O)C=C2CCN3Cc4cc5c(cc4C1C23)OCO5 (stereo not drawn)
(A) 5.79

(Q) Answer with reported pEC50 of O=C(CCOc1ccccc1)OC1C(O)C=C2CCN3Cc4cc5c(cc4C1C23)OCO5 (stereo not drawn)
(A) 5.84

(Q) Answer with reported pEC50 of O=C(COc1ccc(I)cc1)OC1C(O)C=C2CCN3Cc4cc5c(cc4C1C23)OCO5 (stereo not drawn)
(A) 5.74

(Q) Answer with reported pEC50 of O=C(CCc1ccccc1)OC1C(O)C=C2CCN3Cc4cc5c(cc4C1C23)OCO5 (stereo not drawn)
(A) 5.76

(Q) Answer with reported pEC50 of CC(C)c1ccc(OCC(=O)OC2C(O)C=C3CCN4Cc5cc6c(cc5C2C34)OCO6)cc1 (stereo not drawn)
(A) 5.78

(Q) Answer with reported pEC50 of O=C(CSc1ccccc1)OC1C(O)C=C2CCN3Cc4cc5c(cc4C1C23)OCO5 (stereo not drawn)
(A) 5.78

(Q) Answer with reported pEC50 of COc1ccc(OCC(=O)OC2C(O)C=C3CCN4Cc5cc6c(cc5C2C34)OCO6)cc1 (stereo not drawn)
(A) 5.78

(Q) Answer with reported pEC50 of O[C@H]1[C@H]2c3cc4c(cc3CN3CCC(=C[C@@H]1O)[C@H]23)OCO4
(A) 5.65

(Q) Answer with reported pEC50 of O=C(COc1ccc(Cl)cc1Cl)OC1C(O)C=C2CCN3Cc4cc5c(cc4C1C23)OCO5 (stereo not drawn)
(A) 5.77

(Q) Answer with reported pEC50 of O=C(COc1ccc2ccccc2c1)OC1C(O)C=C2CCN3Cc4cc5c(cc4C1C23)OCO5 (stereo not drawn)
(A) 5.71

(Q) Answer with reported pEC50 of O=C(COc1ccc(F)cc1)OC1C(O)C=C2CCN3Cc4cc5c(cc4C1C23)OCO5 (stereo not drawn)
(A) 5.90

(Q) Answer with reported pEC50 of Cc1ccc(OCC(=O)OC2C(O)C=C3CCN4Cc5cc6c(cc5C2C34)OCO6)c(C)c1 (stereo not drawn)
(A) 5.81

(Q) Answer with reported pEC50 of O=C(COc1ccc(Cl)cc1)OC1C(O)C=C2CCN3Cc4cc5c(cc4C1C23)OCO5 (stereo not drawn)
(A) 5.89

(Q) Answer with reported pEC50 of O=C(CCCOc1ccccc1)OC1C(O)C=C2CCN3Cc4cc5c(cc4C1C23)OCO5 (stereo not drawn)
(A) 5.75

(Q) Answer with reported pEC50 of O=C(COc1cccc(Cl)c1)OC1C(O)C=C2CCN3Cc4cc5c(cc4C1C23)OCO5 (stereo not drawn)
(A) 5.76

(Q) Answer with reported pEC50 of O=C(COc1ccc(Br)cc1)OC1C(O)C=C2CCN3Cc4cc5c(cc4C1C23)OCO5 (stereo not drawn)
(A) 5.83

(Q) Answer with reported pEC50 of Cc1ccc(OCC(=O)OC2C(O)C=C3CCN4Cc5cc6c(cc5C2C34)OCO6)cc1 (stereo not drawn)
(A) 5.82
